Test system: PC-9
assay-method-text: Antiproliferative activity against human PC-9 cells expressing EGFR mutation incubated for 48 hrs by CCK8 assay
measurement-setup: Homo sapiens, PC-9, 48 h
quantity-name: IC50 (nM)

# compound, tested-system, IC50 (nM)
records = [
    ("[2H]C([2H])([2H])C([2H])([2H])[S+]([O-])c1cc(Cl)ccc1Nc1nc(Nc2cc(NC(=O)C=C)c(N(C)CCN(C)C)cc2OC)ncc1Cl (stereo unspecified)", "PC-9", 3.91),
]

(P) [2H]C([2H])([2H])C([2H])([2H])[S+]([O-])c1c(F)cccc1Nc1nc(Nc2cc(NC(=O)C=C)c(N(C)CCN(C)C)cc2OC)ncc1Cl (stereo unspecified)
(Q) C=CC(=O)Nc1cc(Nc2ncc(Cl)c(Nc3cccc(F)c3[S+]([O-])CC)n2)c(OC)cc1N(C)CCN(C)C (stereo unspecified)
Of the two listed items, which has the higher IC50? First: P Second: Q Reply briefly: the label of your chosen item.
P
(P: 5.13 nM, Q: 3.14 nM)

(a) C=CC(=O)Nc1cc(Nc2ncc(Cl)c(Nc3ccccc3[S+]([O-])CC)n2)c(OC)cc1N(C)CCN(C)C (stereo unspecified)
(b) C=CC(=O)Nc1cc(Nc2ncc(Cl)c(Nc3cccc(Cl)c3[S+]([O-])C(C)C)n2)c(OC)cc1N(C)CCN(C)C (stereo unspecified)
Hey, between a and b which has a smaller measured IC50? Reply briefly: the label of your chosen item.
b
(b: 4.05 nM, a: 6.1 nM)

Attribution: ChEMBL document CHEMBL6078700
